Data credit: patent US20220049017A1

ASSAY SYSTEM: T1, cynomolgus monkey PCSK9 (cynomolgus monkey, UniProt A8T662 31-692 (Macaca nemestrina entry), limits assumed)
T1 construct: also called Cyno PCSK9; cynoPCSK9
T1 sequence (A8T662 31-692 limits assumed): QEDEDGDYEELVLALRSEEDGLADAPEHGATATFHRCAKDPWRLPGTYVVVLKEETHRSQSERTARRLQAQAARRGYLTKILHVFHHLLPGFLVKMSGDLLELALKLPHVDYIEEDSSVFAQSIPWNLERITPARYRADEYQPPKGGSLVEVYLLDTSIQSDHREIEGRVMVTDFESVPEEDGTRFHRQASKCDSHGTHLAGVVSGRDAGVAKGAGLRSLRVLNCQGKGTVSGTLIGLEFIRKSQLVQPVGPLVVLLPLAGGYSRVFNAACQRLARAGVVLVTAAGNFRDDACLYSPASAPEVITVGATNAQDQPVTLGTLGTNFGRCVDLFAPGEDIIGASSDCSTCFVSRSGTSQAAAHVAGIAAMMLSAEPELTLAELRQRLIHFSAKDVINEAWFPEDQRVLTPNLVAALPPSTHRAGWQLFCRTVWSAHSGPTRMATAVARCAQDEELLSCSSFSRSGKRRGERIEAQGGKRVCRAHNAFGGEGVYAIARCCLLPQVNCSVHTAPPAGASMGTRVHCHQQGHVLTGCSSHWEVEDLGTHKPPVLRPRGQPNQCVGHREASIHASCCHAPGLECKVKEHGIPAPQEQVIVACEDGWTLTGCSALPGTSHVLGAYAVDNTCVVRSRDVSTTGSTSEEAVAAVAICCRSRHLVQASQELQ
ASSAY REMARKS: ProteOn SPR, captured antibody, pH 7.6;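 also: antibodies captured via anti-human Fc on a GLC sensor chip, PCSK9 binding sensorgrams fitted to a 1:1 Langmuir model giving on and off rates, with KD derived from them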
ENDPOINT: kon

Problem: Requested field: kon. Item: CL-148219 QLT mutant (antibody, V domains shown) VH: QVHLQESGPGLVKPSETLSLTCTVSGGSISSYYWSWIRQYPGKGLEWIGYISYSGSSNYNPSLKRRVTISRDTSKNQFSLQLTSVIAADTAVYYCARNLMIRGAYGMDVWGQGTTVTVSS VL: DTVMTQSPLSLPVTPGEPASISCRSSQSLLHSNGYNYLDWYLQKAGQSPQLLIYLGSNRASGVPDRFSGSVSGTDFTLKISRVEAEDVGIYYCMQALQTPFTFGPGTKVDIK
Result: 728000 M⁻¹ s⁻¹
